Recorded values, source patent US20240327502A1.

- system: T1, Processed stabilized hMPV PreF trimer (115BV) (human metapneumovirus, strain B2)
- T1 construct: also called Processed hMPV PreF trimer; processed PreF
- experiment description: BLI, mAb on anti-human Fc sensor
Lab note: class by Octet binding response, see Low: < 0.05 nm; Mid: ≥ 0.05 nm and < 0.2 nm; High: ≥ 0.2 nm

[
  {
    "binder": "M2B09 (antibody, V domains shown, IgG) VH: QVQLVQSGPEVKGPGASVRVSCKANGYTFTSYGINWVRQTPGQGLQWMGWISVHTDDTKDVQQFQDRVTMTTDTSTSTVFMELRNLRFDDTAVYYCARDRTDISGRVRDAFDLWGQGTLVTVSS VL: SYVLTQPPSVSVAPGQTAKITCGGNNIGSKSVHWYRQKPGQAPVLVVYDDSDRPSGIPERFSGSNSGNTATLTISRVEAGDEADYYCHVWDSYSDPNYVFGSGTKVTVL",
    "assigned category": "Low"
  },
  {
    "binder": "M3A01 (antibody, V domains shown, IgG) VH: EVQLVESGGGLVKPGGSLRLSCSVSAFSISGYNMHWVRQAPGKGLEWVSSITGGSNYINYADSVKGRFTISRDNAQNSLYLQMKSLRAEDTAVYYCARETQPSPGSFDSWGQGTLVTVSS VL: QSVLTQPPSVSGAPGQRVTISCTGSSSNIGAGYDVNWYQQLPGTAPKLLIYGNYNRPSGVPDRFSASKSGTSASLAITGLQAEDEADYWCQSYDTSLSGWIFGGGTKLTVL",
    "assigned category": "High"
  },
  {
    "binder": "M4B05 (antibody, V domains shown, IgG) VH: QVQLVQSGPEVRKPGASVIISCKASGYSFISYYIHWVRQAPGQGLEWMGIINPSGGSTEYAQKYQGRLTITRDTSTTTVSMTLSSLRSDDTAVYFCAREQAVGAYDIWGQGTMVTVSS VL: EIVLTQSPGTLSLSPGERATLSCRAGQLINGNYLAWYQKKPGQAPSLLIYDVSRRAAGVPDRFTGSGSGTDFTLTISRLEPDDFAVYYCQHYGRSPSPTFGGGTKVEIK",
    "assigned category": "Mid"
  }
]

Entry M2C08 (antibody, V domains shown, IgG) VH: QVQLVQSGAEVKKPGASVIVSCRASGFTFSLYTMHWVRQAPGQGLEWMGWISADNSNTKYSQKYQDRVTITMDTSATTLFMEISSLRSEDTAVYYCTRGPAYYFDSSGFAFDIWGQGTLVTVSS VL: EIVLTQSPGTLSLSPGERATLSCRASQSVSRTYLGWYQQRPGLAPRLLIYGTSSRATGIPDRFSGSGSGTDFTLTISRLEPEDFATYYCQHFGSSLTFGGGTKVEIK belongs to which category?
Mid
